Experiment: physchem
Conditions: pH 6.8, aqueous buffer, thermodynamic from solid
MEASUREMENT_TYPE: Solubility

MOLECULE: C[C@@H](O)C(=N)NS(=O)(=O)c1cc(C(=O)C(C(=O)c2cc(F)ccc2F)=C2Nc3ccccc3N2)ccc1F [Compound A]
MEASUREMENT_TYPE: Solubility
MEASURED_VALUE: ~9.8 µg/mL

* * *

Assay: Oral absorption test in dog (Experimental Example 6)
Format: in vivo
Settings: plasma, suspension in 0.5% methylcellulose, 50 mg of compound A

MOL: C[C@@H](O)C(=N)NS(=O)(=O)c1cc(C(=O)C(C(=O)c2cc(F)ccc2F)=C2Nc3ccccc3N2)ccc1F
UNIT_OF_MEASURE: ng/mL
Cmax: 793

* * *

Experiment: physchem
Settings: pH 1.2, simulated gastric fluid, thermodynamic from solid
MEASUREMENT_TYPE: Solubility

MOL: C[C@@H](O)C(=N)NS(=O)(=O)c1cc(C(=O)C(C(=O)c2cc(F)ccc2F)=C2Nc3ccccc3N2)ccc1F
MEASUREMENT_TYPE: Solubility
MEASURED_VALUE: ~9.9 µg/mL
